# ASSAYED_TARGET: UniProt P00742
# Sequence (P00742 41-179 limits assumed): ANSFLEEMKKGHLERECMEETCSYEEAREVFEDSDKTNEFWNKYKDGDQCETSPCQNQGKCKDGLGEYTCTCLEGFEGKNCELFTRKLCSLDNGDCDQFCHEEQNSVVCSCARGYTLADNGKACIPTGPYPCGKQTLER
# Sequence (P00742 235-488 limits assumed): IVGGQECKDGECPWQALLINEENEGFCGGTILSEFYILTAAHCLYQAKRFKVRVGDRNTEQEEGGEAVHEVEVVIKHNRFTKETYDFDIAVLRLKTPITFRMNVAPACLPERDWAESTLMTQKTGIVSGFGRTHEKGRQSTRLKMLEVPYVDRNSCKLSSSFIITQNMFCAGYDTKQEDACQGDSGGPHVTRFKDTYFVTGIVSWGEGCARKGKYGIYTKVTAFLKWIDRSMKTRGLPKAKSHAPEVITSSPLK
ENDPOINT_NAME: Ki (µM)
Numbers only, in µM.

Check out these entries, answers already filled in.
Item under review: N=C(N)c1cccc(CN2C[C@H](NS(=O)(=O)c3ccc4ccccc4c3)C2=O)c1 . Reported Ki?
9.9

Try COc1ccc2cc(S(=O)(=O)N[C@H]3CCN(Cc4cccc(C(=N)N)c4)C3=O)ccc2c1 next.
1

Try COc1ccccc1-c1ccc(S(=O)(=O)N[C@H]2CCN(Cc3cccc(C(=N)N)c3)C2=O)cc1 next.
0.19

Try N=C(N)c1cccc(Cn2cc(CCc3ccc4ccccc4c3)c3ccccc32)c1 next.
0.9

Try CCN([C@H]1CCN(Cc2cccc(C(=N)N)c2)C1=O)S(=O)(=O)c1ccc2ccc(OC)cc2c1 next.
0.043

Required: Ki, one value per molecule below.
1. N=C(N)c1cccc(CNC(=O)CNS(=O)(=O)c2ccc3ccccc3c2)c1
2. COc1ccc2ccc(S(=O)(=O)N(CC(N)=O)[C@H]3CCN(Cc4cccc(C(=N)N)c4)C3=O)cc2c1
3. N=C(N)c1cccc(CN2CC[C@H](NS(=O)(=O)c3ccc4ccc(Cl)cc4c3)C2=O)c1
4. N=C(N)c1cccc(CN2CCC[C@H](NS(=O)(=O)c3ccc4ccccc4c3)C2=O)c1
5. N=C(N)c1cccc(CN2CC[C@H](NS(=O)(=O)c3ccc4ccc(O)cc4c3)C2=O)c1

0.34
0.025
0.078
1.3
0.5

Required: Ki, one value per molecule below.
1. COc1ccc2ccc(S(=O)(=O)N[C@H]3CCN(Cc4cc(C(=N)N)cs4)C3=O)cc2c1
2. COc1ccc2ccc(S(=O)(=O)N(Cc3ccccc3)[C@H]3CCN(Cc4cccc(C(=N)N)c4)C3=O)cc2c1
3. COc1ccc2ccc(S(=O)(=O)N(CCC(N)=O)[C@H]3CCN(Cc4cccc(C(=N)N)c4)C3=O)cc2c1
4. CNc1ccc2ccc(S(=O)(=O)N[C@H]3CCN(Cc4cccc(C(=N)N)c4)C3=O)cc2c1
5. N=C(N)c1cccc(CN2CC[C@H](NS(=O)(=O)c3ccc(Oc4ccccc4)cc3)C2=O)c1
6. COc1cccc(-c2ccc(S(=O)(=O)N[C@H]3CCN(Cc4cccc(C(=N)N)c4)C3=O)cc2)c1
7. Cc1cccc(-c2ccc(S(=O)(=O)N[C@H]3CCN(Cc4cccc(C(=N)N)c4)C3=O)cc2)c1

1. 0.083
2. 0.041
3. 0.056
4. 0.25
5. 0.38
6. 0.1
7. 0.12

Required: Ki, one value per molecule below.
1. COc1ccc2ccc(S(=O)(=O)N[C@H]3CCN(Cc4csc(C(=N)N)c4)C3=O)cc2c1
2. COc1ccc2ccc(S(=O)(=O)N[C@H]3CCN(Cc4ccnc(C(=N)N)c4)C3=O)cc2c1

0.011
0.11

* * *

# ASSAYED_TARGET: Prothrombin (Homo sapiens, UniProt P00734)
# EXPERIMENT_DESCRIPTION: Inhibition of human thrombin
Provide the reported pKi of each item.
Numbers only, as −log10 of the molar value.

Required: pKi, one value per compound below.
1. COc1ccc2cc(S(=O)(=O)N[C@H]3CCN(Cc4cccc(C(=N)N)c4)C3=O)ccc2c1
2. CCc1ccc2ccc(S(=O)(=O)N[C@H]3CCN(Cc4cccc(C(=N)N)c4)C3=O)cc2c1
3. CCN([C@H]1CCN(Cc2cccc(C(=N)N)c2)C1=O)S(=O)(=O)c1ccc2ccc(OC)cc2c1

[6.05, 5.80, 6.06]

* * *

# ASSAYED_TARGET: Tissue-type plasminogen activator (Homo sapiens)
# Sequence (P00750 whole entry): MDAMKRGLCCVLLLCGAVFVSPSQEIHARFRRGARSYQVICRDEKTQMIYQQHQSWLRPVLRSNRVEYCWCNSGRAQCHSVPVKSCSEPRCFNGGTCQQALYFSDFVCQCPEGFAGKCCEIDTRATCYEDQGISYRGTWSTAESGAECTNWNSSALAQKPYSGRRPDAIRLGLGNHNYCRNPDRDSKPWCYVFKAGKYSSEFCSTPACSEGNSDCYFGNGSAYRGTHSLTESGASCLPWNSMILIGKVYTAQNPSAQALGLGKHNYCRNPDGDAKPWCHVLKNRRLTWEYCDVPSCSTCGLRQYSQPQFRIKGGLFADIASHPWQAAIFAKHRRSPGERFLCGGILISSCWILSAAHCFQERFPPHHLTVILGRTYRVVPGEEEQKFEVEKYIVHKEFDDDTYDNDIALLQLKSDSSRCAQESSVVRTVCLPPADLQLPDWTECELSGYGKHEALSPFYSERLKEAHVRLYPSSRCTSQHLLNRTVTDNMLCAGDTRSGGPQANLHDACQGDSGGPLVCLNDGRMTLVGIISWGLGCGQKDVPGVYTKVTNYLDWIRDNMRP
ENDPOINT_NAME: Ki (µM)
Give bare numbers, in µM.

Item under review: COc1ccc2ccc(S(=O)(=O)N(C)[C@H]3CCN(Cc4csc(C(=N)N)c4)C3=O)cc2c1 . Reported Ki?
8.6

* * *

# ASSAYED_TARGET: Serine protease 1 (Bos taurus)
# Sequence (P00760 whole entry): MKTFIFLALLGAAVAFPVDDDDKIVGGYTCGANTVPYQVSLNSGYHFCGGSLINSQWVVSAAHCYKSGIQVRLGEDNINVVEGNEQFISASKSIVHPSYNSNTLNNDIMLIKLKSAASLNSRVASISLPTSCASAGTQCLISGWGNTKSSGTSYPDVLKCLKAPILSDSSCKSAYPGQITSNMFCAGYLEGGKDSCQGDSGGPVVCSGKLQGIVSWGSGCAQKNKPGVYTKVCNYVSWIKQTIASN
ENDPOINT_NAME: Ki (nM)
One number for each entry, in nM.

Item under review: N=C(N)c1cccc(CN2CC[C@H](NS(=O)(=O)c3ccc4ccccc4c3)C2=O)c1 . Reported Ki?
2900

Proceed to the following item.
Item under review: COc1ccc2ccc(S(=O)(=O)N(Cc3ccccc3)[C@H]3CCN(Cc4cccc(C(=N)N)c4)C3=O)cc2c1 . Reported Ki?
1800

* * *

# ASSAYED_TARGET: Prothrombin (Homo sapiens, UniProt P00734)
# EXPERIMENT_DESCRIPTION: Compound was evaluated for the inhibition of thrombin.
ENDPOINT_NAME: Ki (nM)
Numbers only, in nM.

Item under review: COc1ccc2ccc(S(=O)(=O)N(C)[C@H]3CCN(Cc4csc(C(=N)N)c4)C3=O)cc2c1 . Reported Ki?
1000

* * *

# ASSAYED_TARGET: Serine protease 1 (Bos taurus)
# Sequence (P00760 whole entry): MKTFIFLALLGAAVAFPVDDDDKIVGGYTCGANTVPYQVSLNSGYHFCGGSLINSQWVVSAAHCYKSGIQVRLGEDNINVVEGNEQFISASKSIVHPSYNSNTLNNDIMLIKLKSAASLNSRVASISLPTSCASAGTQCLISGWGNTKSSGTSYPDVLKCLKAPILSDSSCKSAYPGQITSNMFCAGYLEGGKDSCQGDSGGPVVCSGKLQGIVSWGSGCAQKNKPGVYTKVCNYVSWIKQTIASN
Provide the reported Ki of each item.

Check out these entries, answers already filled in.
Item under review: N=C(N)c1cccc(CN2CC[C@H](NS(=O)(=O)c3cccc(-c4ccccc4)c3)C2=O)c1 . Reported Ki?
> 2900 nM

Try COc1ccc2ccc(S(=O)(=O)N[C@H]3CCN(Cc4coc(C(=N)N)c4)C3=O)cc2c1 next.
> 2900 nM

Try N=C(N)c1cccc(CN2CC[C@H](NS(=O)(=O)c3ccc(Oc4ccccc4)cc3)C2=O)c1 next.
> 2900 nM

Try COc1ccc2ccc(S(=O)(=O)N(CC(=O)O)[C@H]3CCN(Cc4cccc(C(=N)N)c4)C3=O)cc2c1 next.
> 2900 nM

Try COc1ccc2ccc(S(=O)(=O)N[C@H]3CCN(Cc4csc(C(=N)N)c4)C3=O)cc2c1 next.
500 nM

Required: Ki, one value per molecule below.
1. Cc1ccc2ccc(S(=O)(=O)N[C@H]3CCN(Cc4cccc(C(=N)N)c4)C3=O)cc2c1
2. COc1ccc2ccc(S(=O)(=O)N[C@H]3CCN(Cc4ccc(C(=N)N)o4)C3=O)cc2c1
3. N=C(N)c1cccc(CN2CCCC[C@H](NS(=O)(=O)c3ccc4ccccc4c3)C2=O)c1
4. COc1cccc(-c2ccc(S(=O)(=O)N[C@H]3CCN(Cc4cccc(C(=N)N)c4)C3=O)cc2)c1
5. N=C(N)c1cccc(CN2C[C@@H](NS(=O)(=O)c3ccc4ccccc4c3)CC2=O)c1
6. COc1ccccc1-c1ccc(S(=O)(=O)N[C@H]2CCN(Cc3cccc(C(=N)N)c3)C2=O)cc1

["1100 nM", "> 2900 nM", "> 2900 nM", "> 2900 nM", "> 2900 nM", "> 2900 nM"]

Required: Ki, one value per molecule below.
1. COc1ccc2ccc(S(=O)(=O)N[C@H]3CCN(Cc4cc(C(=N)N)cs4)C3=O)cc2c1
2. N=C(N)c1cccc(CN2CC[C@H](NS(=O)(=O)c3ccc4ccc(O)cc4c3)C2=O)c1
3. COc1ccc2ccc(S(=O)(=O)N(Cc3cccs3)[C@H]3CCN(Cc4cccc(C(=N)N)c4)C3=O)cc2c1
4. CNc1ccc2ccc(S(=O)(=O)N[C@H]3CCN(Cc4cccc(C(=N)N)c4)C3=O)cc2c1
5. COc1ccc2ccc(S(=O)(=O)N(Cc3ccsc3)[C@H]3CCN(Cc4cccc(C(=N)N)c4)C3=O)cc2c1
6. N=C(N)c1cccc(CN2CC[C@H](NS(=O)(=O)c3ccc(Cc4ccccc4)cc3)C2=O)c1
7. N=C(N)c1cccc(CN2CC[C@H](NS(=O)(=O)c3ccc4cc(Cl)ccc4c3)C2=O)c1

1: 940 nM; 2: > 2900 nM; 3: 1940 nM; 4: 1500 nM; 5: 1080 nM; 6: > 2900 nM; 7: > 2900 nM

* * *

Provide the reported pKi of each item.
# ASSAYED_TARGET: UniProt P04070
# Sequence (P04070 43-197 limits assumed): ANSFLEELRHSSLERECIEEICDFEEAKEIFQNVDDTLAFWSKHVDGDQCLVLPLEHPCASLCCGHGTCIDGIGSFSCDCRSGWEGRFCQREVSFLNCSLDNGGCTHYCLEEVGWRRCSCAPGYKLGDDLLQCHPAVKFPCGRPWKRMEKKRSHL
# Sequence (P04070 212-461 limits assumed): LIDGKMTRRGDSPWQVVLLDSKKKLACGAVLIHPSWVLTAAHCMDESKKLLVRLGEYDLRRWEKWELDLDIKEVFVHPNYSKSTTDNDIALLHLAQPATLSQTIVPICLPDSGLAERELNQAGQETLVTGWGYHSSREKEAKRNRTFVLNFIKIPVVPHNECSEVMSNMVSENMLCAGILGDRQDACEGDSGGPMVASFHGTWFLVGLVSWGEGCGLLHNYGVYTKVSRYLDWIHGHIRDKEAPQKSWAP
# EXPERIMENT_DESCRIPTION: Compound was evaluated for the inhibition of activated protein C (aPC)
Answers are plain numbers, as −log10 of the molar value.

Item under review: COc1ccc2ccc(S(=O)(=O)N(C)[C@H]3CCN(Cc4csc(C(=N)N)c4)C3=O)cc2c1 . Reported pKi?
5.62

Further cases:
Item under review: COc1ccc2ccc(S(=O)(=O)N[C@H]3CCN(Cc4cccc(C(=N)N)c4)C3=O)cc2c1 . Reported pKi?
5.92
